meta.source: ChEMBL document CHEMBL3046914

# System: IMR-32
# test description: Cell cycle arrest in Homo sapiens (human) IMR32 cells assessed as decrease of G2-M phase cell accumulation at 20 to 200 uM by FACS analysis
# Format: functional, cell-based
The source made the active and inactive calls. No cut-off for these calls is given here.
In this exercise, the only acceptable responses are t for active, f for inactive

In [3]: df
Out[3]:
                          molecule_smiles  assigned_label
0  COc1c(C(=O)/C=C(\O)c2ccccc2)ccc2occc12               t

Q) Look up the recorded call for COc1c(-c2cc(-c3ccccc3)n(-c3cccc([N+](=O)[O-])c3)n2)ccc2occc12 in this test.
A) f

Q) Kindly provide the recorded test outcome for the following compound: COc1c(-c2cc(-c3ccccc3)on2)ccc2occc12
A) t

Q) Record request — test call for COc1c(-c2cc(-c3ccccc3)n(-c3ccc([N+](=O)[O-])cc3[N+](=O)[O-])n2)ccc2occc12
A) f

Q) Tell me the assay call for COc1c(-c2cc(-c3ccccc3)n(-c3cccc(F)c3)n2)ccc2occc12 please.
A) t

Q) Check the results log: what was the call for COc1c(-c2cc(-c3ccccc3)n(-c3ccccc3C)n2)ccc2occc12 ?
A) f

Q) Test call for this compound, please: COc1c(-c2cc(-c3ccccc3)n(-c3ccc(F)cc3)n2)ccc2occc12
A) f

Q) Test call for this compound, please: COc1c(-c2cc(-c3ccccc3)n(-c3ccc(Cl)cc3Cl)n2)ccc2occc12
A) f

Q) Query: recorded result category for COc1c(-c2cc(-c3ccccc3)n(-c3ccccc3)n2)ccc2occc12 in this test
A) f
